Measured hCD71:HSA values are reported for all entries that follow.
target: T1, recombinant biotinylated CD71 extracellular domain (Sino Biologics) with an N-terminal 6His tag (human, UniProt P02786 89-760, biotinylated (site not stated)); test: primary solution ELISA screen, signal on hCD71 over HSA
T1 construct: extracellular domain; also called hCD71; huCD71 ECD
T1 sequence (P02786 other isoform, or with tags, fused parts or gaps): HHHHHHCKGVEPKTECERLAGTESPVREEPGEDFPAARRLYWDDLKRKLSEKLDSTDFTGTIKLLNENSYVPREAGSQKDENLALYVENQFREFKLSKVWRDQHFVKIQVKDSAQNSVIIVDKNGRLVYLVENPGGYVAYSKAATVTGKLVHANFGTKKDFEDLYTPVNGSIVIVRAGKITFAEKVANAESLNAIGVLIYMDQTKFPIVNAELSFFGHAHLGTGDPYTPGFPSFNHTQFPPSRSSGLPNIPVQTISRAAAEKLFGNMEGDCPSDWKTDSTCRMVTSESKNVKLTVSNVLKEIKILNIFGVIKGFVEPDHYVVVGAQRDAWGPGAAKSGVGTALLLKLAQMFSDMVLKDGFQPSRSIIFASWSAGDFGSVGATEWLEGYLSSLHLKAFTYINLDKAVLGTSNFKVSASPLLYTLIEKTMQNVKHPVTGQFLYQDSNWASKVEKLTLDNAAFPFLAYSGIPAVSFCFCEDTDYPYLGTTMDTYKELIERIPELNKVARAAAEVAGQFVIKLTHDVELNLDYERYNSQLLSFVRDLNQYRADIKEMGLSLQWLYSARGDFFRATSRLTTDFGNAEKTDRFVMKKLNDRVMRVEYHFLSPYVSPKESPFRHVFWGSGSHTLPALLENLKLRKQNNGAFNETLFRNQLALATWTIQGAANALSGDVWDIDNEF
Observed property: hCD71:HSA

Binder	Observed property	Measured value
SEQ ID NO 91 (designed binder, not shown: small tags and cut ends, FN3 domain, hit of the apical domain panning) MLPAPKNLVVSRVTEDSARLSWTAPDAAFDSFQIHYWETQGFGEAIVLTVPGSERSYDLTGLKPGTEYPVLIPGVKGGPSSLPLSAIFTT	hCD71:HSA	74
SEQ ID NO 66 (designed binder, not shown: small tags and cut ends, FN3 domain, hit of the apical domain panning) MLPAPKNLVVSRVTEDSARLSWTAPDAAFDSFTIDYDEPRSPGEAIVLTVPGSERSYDLTGLKPGTEYRVFIWGIKGGDTSFPLSAIFTT	hCD71:HSA	29
SEQ ID NO 27 (designed binder, not shown: small tags and cut ends, FN3 domain, hit of the apical domain panning) MLPAPKNLVVSRVTEDSARLSWTAPDAAFDSFRISYAETVRQGEAIVLTVPGSERSYDLTVETGYRNWVMILGVKGGPGSLPLSAIFTT	hCD71:HSA	127
SEQ ID NO 73 (designed binder, not shown: small tags and cut ends, FN3 domain, hit of the apical domain panning) MLPAPKNLVVSEVTEDSARLSWQGVARAFDSFLITYREQIFAGEVIVLTVPGSERSYDLTGLKPGTEYPVWIQGVKGGSPSAPLSAESTT	hCD71:HSA	73
SEQ ID NO 80 (designed binder, not shown: small tags and cut ends, FN3 domain, hit of the apical domain panning) MLPAPKNLVVSRVTEDSARLSWTAPDAAFDSFWIDYEEEGVIGEAIYLHVPGSERSYDLTGLKPGTEYVVKIHGVKGGHPSHPLVAVFTT	hCD71:HSA	25

The reported numbers originate from patent US20220332795A1.
